molecular target: (Lyso)-N-acylphosphatidylethanolamine lipase (Mus musculus) (UniProt Q8VD66); experiment: ABHD4 inhibitors, primary screen, biochemical, fluorescence polarization, mouse (AID 720543); conditions: purified mABHD4, FP-Rh probe fluorescence polarization; at 8.92 µM; hits give high values;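 also: 0% = plate median of compound wells and 100% = S159A mutant with DMSO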
Sequence (Q8VD66 whole entry, looked up): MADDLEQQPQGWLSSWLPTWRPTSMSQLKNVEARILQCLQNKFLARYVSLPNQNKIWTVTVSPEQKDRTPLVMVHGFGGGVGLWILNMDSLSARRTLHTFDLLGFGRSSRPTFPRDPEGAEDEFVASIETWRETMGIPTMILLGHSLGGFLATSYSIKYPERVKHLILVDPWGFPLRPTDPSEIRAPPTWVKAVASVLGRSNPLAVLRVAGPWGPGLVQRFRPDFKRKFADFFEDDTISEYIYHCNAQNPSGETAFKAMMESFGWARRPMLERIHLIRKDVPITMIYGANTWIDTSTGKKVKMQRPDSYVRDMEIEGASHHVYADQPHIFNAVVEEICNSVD
Hit rate of the full screen: of about 370,000 compounds, about 2,000 (0.54%) were called active. This is one part of a sample in which actives are shown more often than they occur.
The entries below come with measured inhibition values attached.
Answer in %, number only, no unit symbol.

Consider the reported inhibition for these compounds:
OCCNCCOc1ccc(Cl)c(Cl)c1; 3.5
COc1ccc(C(=O)CSc2nnc(-c3cnccn3)n2-c2ccc(C)cc2)cc1; -7.18
Cc1ccc(S(=O)(=O)N2CCCC2C(=O)NCc2ccco2)cc1 (stereo unspecified); 5.4
CC1=C(C/C=C(\C)CCCC(C)CCCC(C)CCCC(C)C)C(=O)c2ccccc2C1=O (stereo unspecified); -0.54
Cc1cc(C)c2nc3nc(C)cc(C)c3c(N)c2c1; -1.05

What does the data say about its inhibition? Entry: O=C1CC(c2ccc3c(c2)OCO3)N=C2N(CC3CC3)C/C(=C/c3ccccc3)N12 (stereo unspecified) 5.86

Try this compound next: CSc1nc2sc3c(c2c(=O)[nH]1)CCc1ccccc1-3 4.16

Try this compound next: COC(=O)[C@]12C[C@H](CC(=O)NCC34CC5CC(CC(C5)C3)C4)C(=O)N(Cc3ccc(Cl)cc3Cl)C1=C[C@H](COCc1ccccc1)O[C@@H]2C 2.69

Try this compound next: CCOC(=O)[C@]12CCCC=C1N(Cc1ccc(OC)cc1)C(=O)[C@@H]2CC(=O)N1CCOCC1 5.88

Try this compound next: COc1cccc2c1C(=O)c1c(O)c3c(c(O)c1C2=O)CC(O)(C(C)=NNC(=O)c1ccc(Cl)c(Cl)c1)CC3OC1CC(N)C(O)C(C)O1 (stereo unspecified) 67.4

Try this compound next: COc1ccc(C#CCNCc2ccc(OC)cc2OC)cc1 -4.3

Try this compound next: O=C(N[C@@H]1C/C=C\C[C@@H](CC(=O)N(CCO)Cc2ccccc2)C(=O)N[C@H](Cc2ccccc2)COC1=O)OCC1c2ccccc2-c2ccccc21 7.4

Try this compound next: CCCCN1C(=O)/C(=C2/C=CC=CN2C)SC1=S 4.21

---

molecular target: (Lyso)-N-acylphosphatidylethanolamine lipase (Mus musculus); assay: ABHD4 inhibitors, primary screen, biochemical, fluorescence polarization, mouse (AID 720543); settings: purified mABHD4, FP-Rh probe fluorescence polarization; at 8.92 µM;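 also: 0% = plate median of compound wells and 100% = S159A mutant with DMSO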
Hit rate of the full screen: of about 370,000 compounds, about 2,000 (0.54%) were called active.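 Rule for the calls: active = inhibition exceeding the mean over every tested compound plus 3 SD (cut at about 30% in these data); inactive = the rest.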 The full list was thinned out, with actives kept by preference.
The reply should name one outcome from 1.0 for active, 0.0 for inactive

Hey, what did the test say about N#Cc1ccc(OC[C@@H](O)CN2CCC(C(O)(c3ccccc3)c3ccccc3)CC2)c(F)c1 ? 0.0

---

molecular target: (Lyso)-N-acylphosphatidylethanolamine lipase (Mus musculus); experiment: ABHD4 inhibitors, primary screen, biochemical, fluorescence polarization, mouse (AID 720543); conditions: purified mABHD4, FP-Rh probe fluorescence polarization; at 8.92 µM;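 also: 0% = plate median of compound wells and 100% = S159A mutant with DMSO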
Out of some 370,000 compounds screened, about 2,000 (0.54%) were called active.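 How the source made its calls: active means inhibition exceeding the mean over every tested compound plus 3 SD (cut at about 30% in these data); inactive means the rest.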 Shown is part of a subset that was picked to be rich in actives.
The reply should name one outcome from Yes for active, No for inactive

O=C(O)c1cc([N+](=O)[O-])c(Nc2cccc3ccccc23)c([N+](=O)[O-])c1; Yes
O=C1CCC([N+](=O)[O-])C(c2ccccc2Br)N1 (stereo unspecified); No
COC(=O)[C@]12C[C@H](CC(=O)NCc3ccccc3)C(=O)N(CCc3ccc(OC)c(OC)c3)C1=C[C@H](C(C)(C)C)O[C@@H]2C; No

Kindly consider the entry below.
Hey, what did the test say about O=C1C(=O)N(Cc2ccc(-c3ccsc3)cc2)c2ccc(OC(F)(F)F)cc21 ? No

---

biological target: (Lyso)-N-acylphosphatidylethanolamine lipase (Mus musculus); test: ABHD4 inhibitors, primary screen, biochemical, fluorescence polarization, mouse (AID 720543); conditions: purified mABHD4, FP-Rh probe fluorescence polarization; at 8.92 µM; hits give high values;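 also: 0% = plate median of compound wells and 100% = S159A mutant with DMSO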
Hit rate of the full screen: of about 370,000 compounds, about 2,000 (0.54%) were called active. For the sample, actives were picked, then their nearest neighbours and some compounds at random.
Property Label: inhibition (%)
Answer in %, number only, no unit symbol.

Consider the reported inhibition for these molecules:
CCOc1ccc(Br)cc1CSC(=N)N; 4.65
CN(C)CC(=O)N[C@@H]1C[C@@H]2O[C@H](CO)CC[C@@H]2O[C@@H]1CCc1ccc(C#Cc2ccccc2)cc1; 3.38
O=C(N/N=C/c1cccc([N+](=O)[O-])c1)C1CC(=O)N(c2ccc(Br)cc2)C1 (centres undefined); -2.95
COC(=O)[C@@]12CCCCC=C1N(CCc1ccc(Cl)cc1)C(=O)[C@H]2CC(=O)NCc1ccc(OC)c(OC)c1; -1.49
COC(=O)[C@]12C[C@H](CC(=O)NCCCCc3ccccc3)C(=O)N(Cc3ccc4c(c3)OCO4)C1=C[C@H](C(C)(C)C)O[C@@H]2C; 0.01

What does the data say about its inhibition? Entry: CCc1ccc(-c2nn(-c3ccccc3C)cc2C(=O)N2CCN(C3CCS(=O)(=O)C3)CC2)cc1 (centres undefined) 5.26

Try this molecule next: Cc1cc(C(=O)N/N=C/c2ccc(O)c([N+](=O)[O-])c2)c(C)n1-c1ccc(F)cc1 37.5

Try this molecule next: C[C@H]1[C@H](NC(=O)c2cccc(N(C)C)c2)CC[C@@]23CCCN2C(=O)CCC[C@@H]13 4.02

Try this molecule next: CC(=O)O[C@@]1(C(C)=O)CCC2[C@H]3C=C(C)C4=CC(=O)CC[C@@]4(C)C3CC[C@]21C (some centres undefined) 5.34

Try this molecule next: CCC(C)Cn1c(O)cc2nn(-c3nc4ccccc4s3)c(=O)c-2c1C (centres undefined) 44.6

Try this molecule next: Cc1nc2sccn2c(=O)c1S(=O)(=O)NCCc1ccccc1 0.82

Try this molecule next: COc1ccc(C(CC(=O)c2ccccc2)S(=O)(=O)c2ccccc2)cc1 (centres undefined) -2.98

Try this molecule next: COc1ccc(-c2noc(C(C)NS(=O)(=O)c3ccc(NC(C)=O)cc3)n2)cc1 (centres undefined) 0.4

Try this molecule next: Cc1cc(C(=O)COc2ccccc2[N+](=O)[O-])c(C)n1-c1cccc(S(=O)(=O)N2CCOCC2)c1 -5.94

Try this molecule next: CCC1(C)Cc2c(sc3nnn(CC(=O)Nc4ccc(Cl)cc4)c(=O)c23)CO1 (centres undefined) -18.9

Try this molecule next: CC1CCCCC1NC(=O)CSc1nnc(-c2ccncc2)n1CCCN(C)C (centres undefined) 18.4

Try this molecule next: COCCCNC(=O)C[C@H]1C[C@@]2(C(=O)OC)C(=C[C@H](C(C)(C)C)O[C@@H]2C)N(Cc2ccc3c(c2)OCO3)C1=O 1.21

Try this molecule next: Cc1ccccc1NC(=O)C1CCN(c2ncccn2)CC1 -7.6

Try this molecule next: CCOc1ccc2sc(NS(=O)(=O)c3ccc(N)cc3)nc2c1 16.3

---

biological target: (Lyso)-N-acylphosphatidylethanolamine lipase (Mus musculus) (UniProt Q8VD66); test: ABHD4 inhibitors, primary screen, biochemical, fluorescence polarization, mouse (AID 720543); settings: purified mABHD4, FP-Rh probe fluorescence polarization; at 8.92 µM;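 also: 0% = plate median of compound wells and 100% = S159A mutant with DMSO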
Among all 370,000 compounds or so, about 2,000 (0.54%) were called active.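 Rule for the calls: active = inhibition exceeding the mean over every tested compound plus 3 SD (cut at about 30% in these data); inactive = the rest.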 The sample as a whole holds a higher share of actives than the screen did.
The reply should name one outcome from active, inactive

COc1cccc2c(C)c(C(=O)O)[nH]c12; active
C[C@@H](NC(=O)OC(C)(C)C)c1nnc(S(=O)(=O)Cc2ccccc2)o1; inactive
Cc1cccc(C2C3=C(CCCC3=O)N=C3c4ccccc4C(=O)C32)c1 (stereo not given); inactive
O=[N+]([O-])/C=C/c1ccc2c(ccn2Cc2ccccc2)c1; inactive
O=C1COc2ccc(C(=O)COC(=O)c3ccccc3Cl)cc2N1; inactive

Hey, what did the test say about O=C(OCC#CCSc1nnc(-c2ccco2)o1)c1ccc(F)cc1 ? inactive

Try this molecule next: COc1cc(NC(=S)NNC(=O)CC(C)C)c(OC)cc1Cl inactive

---

molecular target: (Lyso)-N-acylphosphatidylethanolamine lipase (Mus musculus) (UniProt Q8VD66); assay: ABHD4 inhibitors, primary screen, biochemical, fluorescence polarization, mouse (AID 720543); conditions: purified mABHD4, FP-Rh probe fluorescence polarization; at 8.92 µM; hits give high values;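 also: 0% = plate median of compound wells and 100% = S159A mutant with DMSO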
Screen size: about 370,000 compounds; about 2,000 (0.54%) were called active. The entries come from a sample that favours actives as a whole.
Property Label: inhibition

Consider the reported inhibition for these molecules:
O=S(=O)([N-]c1nc2ccccc2nc1-[n+]1ccc(Cc2ccccc2)cc1)c1ccc(Br)s1; 7.29% (inactive)
COCCOC(=O)c1sc(=S)n(CCOC)c1N; 52.1% (active)
CC(C)C(C#CC1CC1)N(Cc1ccc2c(c1)OCO2)C(N)=NC(=O)/C=C/c1cccc(C(F)(F)F)c1 (stereo not given); 4.25% (inactive)
CC1(C)OC(=O)C2=C(C[C@@H](C3CC3)O[C@H]2CCc2cccc(Cl)c2)O1; -7.3% (inactive)
C=C(C)C1CC23C(=O)C4(C(=O)c5ccccc5)C[C@@]5(C)CCC(CC2C1(C)C)(C4=O)C35OC (stereo not given in full); -1.09% (inactive)
O=C(C1CCCO1)N1CCN(S(=O)(=O)c2ccc(Br)cc2)CC1 (stereo not given); 1.47% (inactive)

What does the data say about its inhibition? Entry: COc1ccc2c(C(C)c3ccc(N)cc3)cn(C)c2c1 (stereo not given) -3.15% (inactive)

Try this molecule next: CN1C(=O)c2cccc3c(N)ccc(c23)C1=O 32.9% (active)

Try this molecule next: CCOC(=O)[C@@]12CCC3=C1N(CCC3)C(=O)[C@H](CC(=O)N1CCN(C(=O)c3ccco3)CC1)C2 2.38% (inactive)

Try this molecule next: CCOC(=O)C1CCN(C(=O)C(C)(C)NC(=O)Nc2ccccc2Cl)CC1 -3.65% (inactive)
